Below, each of the compounds is paired with its reported pKi value.
- Tgt: UniProtKB P29371
- Sequence (P29371 whole entry): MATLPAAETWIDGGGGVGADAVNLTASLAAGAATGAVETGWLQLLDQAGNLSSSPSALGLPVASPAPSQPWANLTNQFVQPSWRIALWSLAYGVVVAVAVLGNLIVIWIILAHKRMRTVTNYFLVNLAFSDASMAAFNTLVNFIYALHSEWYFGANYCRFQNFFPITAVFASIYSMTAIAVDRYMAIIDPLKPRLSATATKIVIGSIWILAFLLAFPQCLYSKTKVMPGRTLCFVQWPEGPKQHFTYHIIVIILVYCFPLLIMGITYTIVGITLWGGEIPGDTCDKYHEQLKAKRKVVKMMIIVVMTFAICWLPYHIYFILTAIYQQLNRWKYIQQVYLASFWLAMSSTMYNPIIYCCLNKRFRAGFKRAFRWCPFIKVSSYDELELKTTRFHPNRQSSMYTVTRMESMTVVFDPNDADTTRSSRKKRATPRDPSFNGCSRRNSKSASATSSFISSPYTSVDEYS
pKi: −log10 of the molar value.

[
  {
    "Compound": "NC(=O)C1(N2CCCCC2)CCN(CCC2(c3ccc(Cl)c(Cl)c3)CN(C(=O)c3ccccc3)CCO2)CC1 (stereo not drawn) [compound α, reference compound]",
    "Tgt": "UniProtKB P29371",
    "pKi": 8.70
  },
  {
    "Compound": "CN(C)C(=O)C1(N2CCCCC2)CCN(CCC2(c3ccc(Cl)c(Cl)c3)CN(C(=O)c3ccccc3)CCO2)CC1 (single isomer, unassigned) [Example 1]",
    "Tgt": "UniProtKB P29371",
    "pKi": 10.40
  }
]
